- experiment.notes: Inhibition of NOX in fMLP-induced PMN cells assessed as ROS production
pIC50: −log10 of the molar value.
Reported pIC50 values for a set of compounds

{"compound": "CC(C)[C@@H](C)/C=C/[C@@H](C)[C@H]1CC[C@@H]2[C@]1(C)CC[C@H]1[C@]23C=C[C@]2(C[C@@H](O)CC[C@]12C)OO3 [ERGOSTEROL PEROXIDE]", "pIC50": 4.69}
{"compound": "COc1c(C)c(-c2c(C)c(OC)c3c(c2OC)OCO3)c(OC)c2c1OCO2", "pIC50": 4.81}
{"compound": "C=C(CC[C@@H](C)[C@H]1CC[C@H]2C3=C(C(=O)C[C@]12C)[C@@]1(C)CC[C@@H](O)[C@](C)(O)[C@@H]1C[C@@H]3O)C(C)C(=O)O (stereo partly specified)", "pIC50": 4.33}
{"compound": "CC(C)[C@@H](C)/C=C/[C@@H](C)[C@H]1CC[C@H]2C3=CC=C4C[C@@H](O)CC[C@]4(C)[C@H]3CC[C@]12C", "pIC50": 4.55}
{"compound": "C=C(CC[C@@H](C)[C@H]1CC[C@H]2C3=C(C(=O)C[C@]12C)[C@@]1(C)CCC(=O)[C@@H](C)[C@@H]1C[C@@H]3O)C(C)C(=O)O (stereo partly specified)", "pIC50": 4.65}
{"compound": "C=C(CC[C@@H](C)[C@H]1CC[C@H]2C3=C(C(=O)C[C@]12C)[C@@]1(C)CCC(=O)[C@@H](C)[C@@H]1CC3=O)C(C)C(=O)OC (stereo partly specified)", "pIC50": 5.08}

---

Reported EC50 values for a set of molecules
- Tested on: Daoy
- experiment.notes: Cytotoxicity against human DaOY cells after 3 days by MTT assay
- Format: functional
- setup.conditions: 72 h, read-out: ED50 (the source's name)
assay.metric: EC50

{"molecule": "C=C(CC[C@@H](C)[C@H]1CC[C@H]2C3=C(C(=O)C[C@]12C)[C@@]1(C)CCC(=O)[C@@H](C)[C@@H]1C[C@@H]3O)C(C)C(=O)O (stereo partly drawn)", "assay.metric": "EC50", "reported.result": "> 20 µg/mL"}
{"molecule": "C=C(CC[C@@H](C)[C@H]1CC[C@H]2C3=C(C(=O)C[C@]12C)[C@@]1(C)CC[C@@H](O)[C@](C)(O)[C@@H]1C[C@@H]3O)C(C)C(=O)O (stereo partly drawn)", "assay.metric": "EC50", "reported.result": "> 20 µg/mL"}
{"molecule": "COc1cc(C)c(OC)c2c1OCO2", "assay.metric": "EC50", "reported.result": "> 20 µg/mL"}
